# System: Rattus norvegicus
# test details: Inhibition of hepatic cholesterol synthesis in Sprague-Dawley rat assessed as incorporation of [14C]acetate into hepatic sterols at 1 mg/kg, po
# Assay type: functional
readout name: inhibition in vivo at 1 mg/kg
Entry format: amount then unit.

Q: Could you tell me which inhibition in vivo at 1 mg/kg is on file for CC(C)c1nc(Nc2nsc(-c3ccccc3)n2)nc(-c2ccc(F)cc2)c1/C=C/[C@@H](O)C[C@@H](O)CC(=O)[O-].[Na+] ?
Result: 20%

Q: Could you tell me which inhibition in vivo at 1 mg/kg is on file for CC(C)c1nc(N(C)c2ccnn2C)nc(-c2ccc(F)cc2)c1/C=C/[C@@H](O)C[C@@H](O)CC(=O)[O-].[Na+] ?
Result: 86%

Q: Could you tell me which inhibition in vivo at 1 mg/kg is on file for CC(C)c1nc(N(c2ccon2)S(C)(=O)=O)nc(-c2ccc(F)cc2)c1/C=C/[C@@H](O)C[C@@H](O)CC(=O)[O-].[Na+] ?
Result: 64%

Q: Could you tell me which inhibition in vivo at 1 mg/kg is on file for CC(C)c1nc(Nc2ccon2)nc(-c2ccc(F)cc2)c1/C=C/[C@@H](O)C[C@@H](O)CC(=O)[O-].[Na+] ?
Result: 43%
